Origin of the recorded values: ChEMBL document CHEMBL2046355

Test: Half life in rat at 1 mg/kg, iv
Type: ADME, organism-based
Parameters: dose 1 mg/kg, route intravenous
Details: in vivo
quantity.kind: half-life (min)

I. Cc1csc(N(C)C(=O)CSc2ccc(-c3ccccc3)nn2)n1
II. Cc1csc(N(C(=O)CSc2ccc(-c3ccccc3)nn2)C2CC2)n1
Of I and II , which shows the smaller half-life value? Could you answer with the label of the item you picked? II

----------
Molecular target: Solute carrier family 12 member 5 (Homo sapiens, UniProt Q9H2X9)
Experiment: Antagonist activity at KCC2 expressed in human HEK293 cells assessed as decrease in Tl-stimulated fluorescence increase after 8 mins by fluorescence analysis
quantity.kind: IC50 (nM)

{"columns": ["compound", "units.label", "IC50"],
 "data": [
  ["Cc1csc(N(C)C(=O)CSc2ccc(-c3ccccc3)cn2)n1", "nM", 2900],
  ["CCC(Sc1ccc(-c2ccccc2)nn1)C(=O)N(c1nc(C)cs1)C1CC1 (single isomer, unassigned; (+))", "nM", 385],
  ["Cc1csc(N(C(=O)CSc2ccc(-c3ccccc3)nn2)C2CCCC2)n1", "nM", 1060],
  ["CCC(Sc1ccc(-c2ccccc2)nn1)C(=O)N(c1nc(C)cs1)C1CC1 (racemic)", "nM", 756],
  ["Cc1csc(NC(=O)CSc2ccc(-c3ccccc3)nn2)n1", "nM", 568]
]}

1. Cc1csc(N(C)C(=O)CSc2ccc(-c3ccccc3)nn2)n1
2. O=C(Cn1cnc2c(nnn2Cc2ccccc2)c1=O)c1ccc(Cl)cc1
3. Cc1csc(N(C(=O)CSc2ccc(-c3ccccc3)nn2)C2CCC2)n1
4. Cc1csc(N(C(=O)CSc2ccc(-c3ccccc3)nn2)C2CC2)n1
5. Cc1csc(NC(=O)CSc2ccc(-c3ccccc3)cn2)n1
Please rank these compounds by IC50 in descending order. To answer, write out the labels according to the requested order. 5, 2, 1, 3, 4

----------
Target: Solute carrier family 12 member 5 (Homo sapiens)
Sequence (whole entry): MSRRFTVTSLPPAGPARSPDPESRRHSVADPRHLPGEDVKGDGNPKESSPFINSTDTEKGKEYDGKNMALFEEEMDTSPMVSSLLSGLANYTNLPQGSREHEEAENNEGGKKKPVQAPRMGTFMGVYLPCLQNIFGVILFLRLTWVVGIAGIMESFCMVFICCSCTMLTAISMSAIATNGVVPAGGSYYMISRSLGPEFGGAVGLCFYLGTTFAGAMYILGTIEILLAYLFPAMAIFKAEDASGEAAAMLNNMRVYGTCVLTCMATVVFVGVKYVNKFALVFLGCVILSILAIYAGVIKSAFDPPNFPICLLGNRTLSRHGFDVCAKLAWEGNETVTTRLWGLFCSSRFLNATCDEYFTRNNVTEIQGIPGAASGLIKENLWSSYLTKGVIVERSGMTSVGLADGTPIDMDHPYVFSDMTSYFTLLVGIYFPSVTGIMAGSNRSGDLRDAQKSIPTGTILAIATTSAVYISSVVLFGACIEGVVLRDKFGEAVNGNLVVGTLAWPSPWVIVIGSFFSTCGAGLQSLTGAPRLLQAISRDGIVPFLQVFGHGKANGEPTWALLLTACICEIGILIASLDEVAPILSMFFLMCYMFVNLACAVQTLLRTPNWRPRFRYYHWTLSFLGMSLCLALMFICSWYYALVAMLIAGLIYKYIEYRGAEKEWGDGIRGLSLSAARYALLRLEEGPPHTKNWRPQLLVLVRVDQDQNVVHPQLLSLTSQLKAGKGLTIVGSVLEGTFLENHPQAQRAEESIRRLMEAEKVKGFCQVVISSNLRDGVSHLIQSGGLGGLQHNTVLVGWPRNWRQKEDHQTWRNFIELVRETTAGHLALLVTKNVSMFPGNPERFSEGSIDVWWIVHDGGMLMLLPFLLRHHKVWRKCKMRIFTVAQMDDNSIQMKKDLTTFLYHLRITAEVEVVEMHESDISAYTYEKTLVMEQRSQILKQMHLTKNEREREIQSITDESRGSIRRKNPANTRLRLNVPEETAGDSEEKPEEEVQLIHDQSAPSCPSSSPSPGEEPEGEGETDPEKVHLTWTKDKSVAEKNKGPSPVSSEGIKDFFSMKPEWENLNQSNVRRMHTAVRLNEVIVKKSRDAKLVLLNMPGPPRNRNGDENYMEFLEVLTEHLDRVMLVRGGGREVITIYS
Test: Antagonist activity at KCC2 expressed in human HEK293 cells assessed as decrease in Tl-stimulated fluorescence increase at 2 uM after 8 mins by fluorescence analysis
Type: functional, cell-based
quantity.kind: inhibition (%)

{"columns": ["molecule", "units.label", "numeric.value"],
 "data": [
  ["CCC(Sc1ccc(-c2ccccc2)nn1)C(=O)N(c1nc(C)cs1)C1CC1 (single isomer, unassigned; (-))", "%", 40],
  ["Cc1csc(N(C)C(=O)CSc2ccc(-c3ccccc3)nn2)n1", "%", 82],
  ["CCC(Sc1ccc(-c2ccccc2)nn1)C(=O)N(CC)c1nc(C)cs1 (racemic)", "%", 45],
  ["CCN(C(=O)C(C)Sc1ccc(-c2ccccc2)nn1)c1nc(C)cs1 (racemic)", "%", 57]
]}

a. CCC(Sc1ccc(-c2ccccc2)nn1)C(=O)N(C)c1nc(C)cs1 (racemic)
b. Cc1csc(N(C)C(=O)C(C)Sc2ccc(-c3ccccc3)nn2)n1 (racemic)
c. CCC(Sc1ccc(-c2ccccc2)nn1)C(=O)N(c1nc(C)cs1)C1CC1 (racemic)
Sort the molecules on inhibition; start with the lowest figure. To answer, write out the labels according to the requested order. a, b, c
